system: SF-295 CNS; test: NCI tumour cell line growth inhibition, 48 h
Observation Type: TGI (µM)
Report only the number, with the unit µM understood.

Consider the reported TGI for these compounds:
What value of TGI has been recorded for this entry: `CC[C@@]1(O)C(=O)OCc2c1cc1n(c2=O)Cc2cc3c(NC(=O)CN)cccc3nc2-1`
20.4

What value of TGI has been recorded for this entry: `CC(=O)NC1=CC(=O)c2cc(C)cc(O)c2C1=O`
39.4

What value of TGI has been recorded for this entry: C=C1C(=O)O[C@H]2C[C@@H]1CCC1(C)OC1CC/C(C)=C/CC[C@H]2C (stereo partly specified)
26.3

Attention now turns to another entry.
What value of TGI has been recorded for this entry: `CCOC(=O)C1=C(c2ccccc2)N(c2ccc(OC)cc2)[C@]2(C#N)C(O)=C(Cl)C(Cl)=C(O)[C@]12C#N`
76.7

* * *

tested on: CAKI-1 renal; assay: NCI tumour cell line growth inhibition, 48 h
Observation Type: TGI (µM)
Report only the number, with the unit µM understood.

What value of TGI has been recorded for this entry: CCOC(=O)C(NCc1cccc(C(F)(F)F)c1)(NC(=O)c1ccccc1)C(F)(F)F (stereo not given)
41.2

Further cases:
What value of TGI has been recorded for this entry: `C=C(C)[C@@H]1CC[C@]2(C(=O)NCCNCCNCCN)CC[C@]3(C)[C@H](CC[C@@H]4[C@@]5(C)CCC(=O)C(C)(C)[C@@H]5CC[C@]43C)[C@@H]12`
13.1

* * *

system: SF-268 CNS; assay: NCI tumour cell line growth inhibition, 48 h
Observation Type: TGI

Consider the reported TGI for these compounds:
What value of TGI has been recorded for this entry: COc1ccc(C(=O)CC(c2ccc(OC)c(OC)c2)c2c(O)c3ccccc3oc2=O)cc1OC (stereo not drawn)
> 100 µM

What value of TGI has been recorded for this entry: `COc1ccc(/C=C\c2cc(OC)c(OC)c(OC)c2)cc1OCC(=O)Nc1nc2ccc(OC(F)(F)F)cc2s1`
> 100 µM

What value of TGI has been recorded for this entry: `CN(C)CCn1c(=O)c2ccc3c4c(nn3CCN(C)C)c3ccccc3n(c1=O)c24`
5.12 µM

What value of TGI has been recorded for this entry: COc1ccc2c(c1)[C@@]1(C)CCC3c4ccc(O)cc4CCC3C1C2 (stereo partly drawn)
32.6 µM

What value of TGI has been recorded for this entry: `Cc1cc2nc3c4cccc(O)c4n(CCN(C)C)c3nc2cc1C`
27.6 µM

What value of TGI has been recorded for this entry: `N#Cc1nc(/C=C/c2ccccc2)oc1N`
> 100 µM

What value of TGI has been recorded for this entry: `COc1ccc(-n2c(C)nc3c(c(C)nn3-c3ccccc3)c2=O)cc1`
> 100 µM

What value of TGI has been recorded for this entry: `Oc1cc(Cl)ccc1Cc1ccc(Cl)cc1O`
27.7 µM

What value of TGI has been recorded for this entry: CC(C)C1=CC23CCC4C(C)(C(=O)O)CCCC4(C)C2CC1C(C(=O)O)C3C(=O)O (stereo not drawn)
> 100 µM

What value of TGI has been recorded for this entry: `Cc1ccc(C[P+](c2ccccc2)(c2ccccc2)c2ccccc2)cc1`
> 57.8 µM

Attention now turns to another entry.
What value of TGI has been recorded for this entry: c1ccc(C2=C(c3ccccc3)P(c3ccccc3)C2)cc1 (stereo not drawn)
> 100 µM
